System: NCI/ADR-RES ovarian
Experiment: NCI tumour cell line growth inhibition, 48 h
Measured Property: TGI

• O=c1[nH]c2ccccc2n1C1CCN(CCOc2ccccc2)CC1 = > 100 µM
• Oc1ccc(/C=N/c2nccs2)c(O)c1 = > 100 µM
• Nc1cc(N)c2nc(-c3ccccc3)c(NCc3ccc(Cl)c(Cl)c3)nc2c1 = 45.6 µM
• COc1ccc(-c2nnc(Nc3nc(O)c(C4=c5cc(Br)ccc5=NC4=O)s3)o2)cc1 = > 71.8 µM
• CC(C)(C)OC(=O)N1Cc2cc3ccccc3nc2C1CO (stereo unspecified) = > 100 µM
• CCCCCCCCCCCCCCCCCCOCC(O)CO (stereo unspecified) = > 25 µM
• CCOP(=O)(OCC)C(NC(c1ccccc1)c1ccccc1)c1ccc(C(C)C)cc1 (stereo unspecified) = 7.52 µM
• COC1C(=O)N(SC)C1c1ccccc1Cl (stereo unspecified) = > 100 µM
• COc1cc(C(=O)OC2CC34CCNC35CC(OC5(OC)C2O)c2cc3c(cc24)OCO3)ccc1O (stereo unspecified) = > 100 µM
• COc1ccc(NC(=O)c2cccc(C3CCc4c(cc(OC)c(OC)c4OC)O3)c2)cc1 (stereo unspecified) = > 100 µM
• CCOC(=O)c1cc2c(n1Cc1ccccc1OC)-c1oncc1CCC2 = > 100 µM

###

Test system: COLO 205 colon
Test: NCI tumour cell line growth inhibition, 48 h
Measured Property: GI50

* N/C(=N/S(=O)(=O)c1cc(C(=O)Nc2ccc(F)cc2)c(Cl)cc1SCc1ccccc1)Nc1ccccc1O | 4100 nM
* CC1(C)CC[C@]2(CO)CC[C@]3(C)C(=CC[C@@H]4[C@@]5(C)CCNCC(C)(C)[C@@H]5CC[C@]43C)[C@@H]2C1 | 1900 nM
* CCC(C(=O)[C@@H](C)[C@@H](O)[C@H](C)[C@@H]1O[C@@H]([C@@H](CC)C(=O)ONC(=O)c2ccccc2)CC[C@@H]1C)[C@H]1O[C@]2(C=CC(=O)[C@]3(CC[C@@](C)([C@H]4CC[C@](O)(CC)[C@H](C)O4)O3)O2)[C@H](C)C[C@@H]1C (some centres not stated) | 122 nM
* O=C(CCl)Nc1ccc(Cc2ccc(NC(=O)CCl)cc2)cc1 | 1970 nM
* CC(=N\O)/C(C)=N/O.CC(=N\O)/C(C)=N/O.[Fe].[NH2-].c1c[nH]cn1 | > 100000 nM
* Cc1nn(-c2ccccc2)c2nc(C)n(-c3ccc(Br)cc3)c(=O)c12 | 549 nM
* CC(=O)O[C@H]1CC[C@]2(C)C3C(=O)C[C@]4(C)[C@@H](C(C)CCC(=O)O)CC[C@@]4(C)[C@@H]3CC[C@H]2C1(C)C (some centres not stated) | 20900 nM
* CCOC(=O)CCSC1=CC(=O)c2nc3ccccc3c3ccnc1c23 | 24900 nM
* CC[Si](CC)(CC)OC1[C@@H](O[Si](CC)(CC)CC)[C@@H](CNC(=O)NC)O[C@H]1n1cnc2c(NC(=O)Nc3ccccc3)ncnc21 (some centres not stated) | 2090 nM
* C/C=C(\C)C(=O)O[C@@H]1C=CC(=O)O[C@H]1CNC(=O)[C@H](C)O | 8960 nM
* CC(=O)c1ccc(Oc2c3ccccc3nc3occc23)cc1 | 24100 nM
* COc1ccc2nc3ccccc3c(NCc3ccccc3)c2c1 | 1540 nM
* CN(C)C/C=C/C(=O)Nc1cc2c(Nc3cccc(Cl)c3F)ncnc2cc1OCCOC(F)F | 1690 nM
* O=C(CC1Sc2ccccc2NC1=O)NNc1ccc(F)cc1 (configuration not stated) | 55600 nM
* CCS(=O)(=O)N1CCN(c2ccc(Nc3ncc(C(N)=O)c(NC4CC4)n3)cc2)CC1 | 2610 nM
* Cn1cc(-c2nc(-c3cn(C)c4ncccc34)cs2)c2ccccc21 | 1680 nM
* C=C1C(=O)O[C@H]2[C@H]1CC/C(COC(=O)/C=C\C(=O)NCc1ccc(Cn3c(=O)sn(-c4ccc(Cl)cc4)c3=O)cc1)=C\CC[C@@]1(C)O[C@@H]21 | 564 nM

###

Test system: UACC-62 melanoma
Experiment: NCI tumour cell line growth inhibition, 48 h
Attribute: TGI
Measured Property: TGI

* CCN(CC)CCCC(C)Nc1ccnc(/C=C/c2ccc(Cl)cc2)c1 (stereo unspecified) | 3.69 µM
* CC(=O)N1N=C(c2ccc3ccccc3c2O)CC1c1ccc(N(C)C)cc1 (stereo unspecified) | > 100 µM
* C/C(=N/N)c1sc(-c2nc(C)c(/C(C)=N\N)s2)nc1C | > 100 µM
* C[C@]12CC[C@H](O)CC1=CC[C@@H]1[C@@H]2CC[C@]2(C)NC(=O)/C(=C\c3ccccc3)C[C@@H]12 | 38.6 µM
* Cc1ccc(C2C3Cc4ccccc4C3=NN2c2ccc(S(=O)(=O)NC(=O)Nc3ccccc3)cc2)cc1 (stereo unspecified) | 23.2 µM
* O=C(O)CCC(NC(=O)c1ccc(CNc2nc3cc(C(F)(F)F)ccc3nc2C(=O)O)cc1)C(=O)O (stereo unspecified) | > 100 µM
* CCCCC[C@H]1C/C=C2/C(=O)C(Cl)=C[C@@H]2C/C=C\CCCC(=O)O1 | 1 µM
* Cc1cn(C2CC(O)C(COC(N)=O)O2)c(=O)[nH]c1=O (stereo unspecified) | > 100 µM
* Nc1ncc2c(n1)-c1ccccc1OC2N1CCOCC1 (stereo unspecified) | > 100 µM
* CC[P+]1(c2ccccc2)CCCCC1 | > 100 µM
* O=C1NC(N2CCCCC2)=N/C1=C\c1ccco1 | > 100 µM

###

Attribute: TGI
Test system: MDA-MB-231 breast
Assay: NCI tumour cell line growth inhibition, 48 h
Measured Property: TGI

• Cc1cn(C2CC(O)C(COC(N)=O)O2)c(=O)[nH]c1=O (configuration not stated) = > 100 µM
• CCN(CC)CCCC(C)Nc1ccnc(/C=C/c2ccc(Cl)cc2)c1 (configuration not stated) = 3.19 µM
• COc1cccc(CCn2c(N)c(C#N)c3ccc([N+](=O)[O-])cc3c2=O)c1 = > 46.4 µM
• O=C(CCN1CCCC1)c1ccc(Oc2ccc(F)cc2)cc1 = > 100 µM
• CC1(C)CCC[C@@]2(C)C1CC[C@@]1(CO1)[C@@H]2/C=C\C(C=O)CC=O (some centres not stated) = > 100 µM
• COC(=O)CNC(=O)CSc1nnc(COc2ccc(Cl)cc2)n1-c1ccccc1 = 49.1 µM
• Oc1cccc2ccc(Br)nc12 = > 100 µM
• Cc1cc(S(=O)(=O)NC2=NCC(C)(C)CN2)c(S)cc1Cl = > 100 µM
• COc1ccc(C(Nc2ccccn2)c2cc(C(C)(C)C)cc(C(C)(C)C)c2O)cc1 (configuration not stated) = > 100 µM
• O=C(c1ccc(Nc2nccc(NCCCCNc3ccnc4cc(Cl)ccc34)n2)cc1)N1CCCCC1 = 4.97 µM
• COc1ccc(NC(=O)c2cccc(C3CCc4c(cc(OC)c(OC)c4OC)O3)c2)cc1 (configuration not stated) = > 100 µM
• NC(Cc1c[nH]c2cccc(F)c12)C(=O)O (configuration not stated) = 2300 µM
• CCCCNCCCCCNc1cc(OC)cc2cccnc12 = 50.8 µM
• CC[C@]1(Cc2ccc(OC)c(OC)c2)C=[N+]([O-])O[C@H](OCc2ccccc2)[C@@H]1OC(C)=O = > 100 µM
• O=C(O)CCC(NC(=O)c1ccc(Oc2nc3ccccc3nc2-c2ccccc2)cc1)C(=O)O (configuration not stated) = > 100 µM
• CCOC(=O)CCc1ccc(NC(=O)/C=C/c2ccc([N+](=O)[O-])o2)cc1 = 3.94 µM
• CC(=O)N1N=C(c2ccc3ccccc3c2O)CC1c1ccc(N(C)C)cc1 (configuration not stated) = > 100 µM
• O=C(CC1Sc2ccccc2NC1=O)NNc1ccc(F)cc1 (configuration not stated) = > 100 µM
• c1cc2c3ccsc3c3sccc3c2s1 = > 100 µM
• COC1C(=O)N(SC)C1c1ccccc1Cl (configuration not stated) = 87.3 µM
• N/C(=N/S(=O)(=O)c1cc(C(=O)Nc2ccc(F)cc2)c(Cl)cc1SCc1ccccc1)Nc1ccccc1O = 3.1 µM
• C=C1C(O)C2CC(C)(C)C(=O)C2=C(CC(C)C)C12CC2 (configuration not stated) = > 100 µM

###

System: M14 melanoma
Assay: NCI tumour cell line growth inhibition, 48 h; in the data active = GI50 below about 0.43 µM; inactive = the rest
Outcomes: active, inactive

* NCCCNc1nc2ccccc2c2c(=O)c3cc(F)cc(Cl)c3sc12 | inactive
* C=CCN1C(=O)[C@]2(SC1=S)[C@H](c1cccc(Cl)c1)CN(C)[C@]21C(=O)NC2C=CC(Cl)=C[C@H]21 (some centres undefined) | inactive
* Nc1nc(N)c(-c2ccc(Cl)c(Cl)c2)c(CP(Cl)(Cl)(Cl)Br)n1 | inactive
* O=c1[nH]c2ccccc2n1C1CCN(CCOc2ccccc2)CC1 | inactive
* Cc1ccc(C2C3Cc4ccccc4C3=NN2c2ccc(S(=O)(=O)NC(=O)Nc3ccccc3)cc2)cc1 (centres undefined) | inactive
* CCC(C(=O)[C@@H](C)[C@@H](O)[C@H](C)[C@@H]1O[C@@H]([C@@H](CC)C(=O)ONC(=O)c2ccccc2)CC[C@@H]1C)[C@H]1O[C@]2(C=CC(=O)[C@]3(CC[C@@](C)([C@H]4CC[C@](O)(CC)[C@H](C)O4)O3)O2)[C@H](C)C[C@@H]1C (some centres undefined) | inactive
* Cn1cc(-c2nc(-c3cn(C)c4ncccc34)cs2)c2ccccc21 | inactive
* OCC1OC(n2cnc3c(NCc4ccco4)ncnc32)C(O)C1O (centres undefined) | inactive
* O=c1[nH]c(=O)n(C2OC(CO)C(O)C2O)cc1F (centres undefined) | active
